Assay: protein stability index of a GFP-peptide fusion (yeast GPS) (PSI 1-4); higher = more stable; sorted into four equal gates, so the index is relative within each strain
Settings: doa10∆
parameterMeasured: protein stability index
// print number alone

Example entries and their recorded answers appear below.
Query: Please list protein stability index recorded for the sequence NKRWKVDIGGKQHAVLM [RRP4]
Reply: 2.87

Query: Indicate the recorded protein stability index value for this sequence: FFLSIYFFYASRPEYSC [YJL039C/NUP192]
Reply: 1.41

Query: # return recorded protein stability index for entry QKKNFLFKPLNKTLTLD [ARP7]
Reply: 2.83

---
Query: Specify reported protein stability index for the sequence shown: LLKHPFKAIHGSQLRLS [YCS4]
Reply: 1.67

Query: Give reported protein stability index value for MAQNKTHIPQTNLKNHP [YLR018C/POM34]
Reply: 3.12

Query: Determine its reported protein stability index: CLDRCKEQYNRYRDLMI [MTR3]
Reply: 2.64

Query: Provide protein stability index value for the following sequence: ERPPLLPILPIQRLRLL [YOR098C/NUP1]
Reply: 1.34

Query: # return recorded protein stability index for entry IELIDYDKLPAGQNATV [RET1]
Reply: 2.41

Query: Please supply the value of reported protein stability index for the item FGHIDLAKPVFHVGFIA [RPO21]
Reply: 2.37

Query: Look up and state reported protein stability index for FSPDGHIFQVEYALEAV [PRE6]
Reply: 3

Query: // Input: THIPQTNLKNHPAYLFK [YLR018C/POM34] . Output its protein stability index only.
Reply: 2.84

Query: Report measured protein stability index; entry is SQKAKLMTFNAETKSYD [YLR335W/NUP2]
Reply: 2.55

Query: Return protein stability index (reported value) for this sequence: FVPVPALSAYHKVQTKL [RPS7B]
Reply: 2.42

Query: Return protein stability index for the following sequence: KLDENNAQLSCITKQDG [PUP2]
Reply: 2.79

Query: Consider the sequence GLFPFESYKPSVQLPDM [SWI3] . State its measured protein stability index.
Reply: 3.05

Query: In one line, give reported protein stability index of the entry FLFQNINFERIDEVFSW [GRR1] .
Reply: 2.36
